- ASSAY DETAILS: Toxicity in immune-compromised mouse compound treated ip 5 days per week for 2 weeks
- Type: organism-based
- CONDITION LABEL: in vivo
MEASURE: MTD at 2 weeks
The answer should read as a number with its unit following.

## Task Kindly indicate its recorded MTD at 2 weeks. Item: Cl.NCCCNCCCN1CCCCCCCCCCCCCC1
## Result 2.5 mg/kg

###

# selectivity ratio annotations
- Tested on: polyamine transporter
- ASSAY DETAILS: Selectivity ratio of IC50 for polyamine transporter deficient CHO-MG cells to IC50 for CHO cells by MTS assay
- Type: ADME, cell-based, Cricetulus griseus
- CONDITION LABEL: chinese hamster, polyamine transporter deficient CHO-MG cells and CHO cells; read-out: Ratio IC50

SMILES TEXT: Cl.NCCCCNCCCCNCC1CCCCCCCCCCCCCC1
SYSTEM NAME: polyamine transporter
RESULT: 1
--
SMILES TEXT: Cl.NCCCNCCCN1CCCCCCCCCCCCCC1
SYSTEM NAME: polyamine transporter
RESULT: 1

## Task Kindly indicate its recorded selectivity ratio. Item: Cl.NCCCCNCCCCN1CCCCCCCCCCCCCC1
## Result 1

## Task Kindly indicate its recorded selectivity ratio. Item: Cl.NCCCNCCCNCC1CCCCCCCCCCCCCC1
## Result 1

## Task Kindly indicate its recorded selectivity ratio. Item: Cl.NCCCCNCCCCNC1CCCCCCCCCCCCCC1
## Result 1

## Task Kindly indicate its recorded selectivity ratio. Item: Cl.NCCCNCCCNC1CCCCCCCCCCCCCC1
## Result 2.1
